# sfGFP reporter fluorescence listing for each entry below
B1: library; numbered along this chain (parent)
chain: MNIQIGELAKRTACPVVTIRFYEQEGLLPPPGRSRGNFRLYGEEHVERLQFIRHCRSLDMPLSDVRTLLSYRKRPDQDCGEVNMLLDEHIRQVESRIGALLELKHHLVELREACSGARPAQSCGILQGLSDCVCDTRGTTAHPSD

# Variants of: B1
# EXPERIMENTAL_DETAILS: sfGFP reporter fluorescence (15 h) (µM FITC); higher = stronger transcriptional activation
# CONDITION_SUMMARY: library round: Round 1; ligand: 30 µM Zn
// keep it numeric: no unit symbol after the value

MUTANT_CODE: P61N D64K D131C
sfGFP reporter fluorescence: 0.868

MUTANT_CODE: N83Y R111A
sfGFP reporter fluorescence: 0.0742

MUTANT_CODE: M60L P61N D64K D131C
sfGFP reporter fluorescence: 1.15

MUTANT_CODE: N83T D131M D135A
sfGFP reporter fluorescence: 0.205

MUTANT_CODE: I3G K104V
sfGFP reporter fluorescence: 0.0899

Now let's try a different one.
Tell me the measured sfGFP reporter fluorescence of D135S P143W , please.
0.355

Source listed as the supplement of paper PMC12783771.
